assay.procedure: Single ascending dose
Type: in vivo, human
conditions.used: both, human, plasma, po, 50 ug
parameter: AUC(0-inf) (µg·h/mL)
Enter your answer as a number in µg·h/mL; do not include the unit.

Q: Which AUC(0-inf) reading was recorded for the compound O=C(O)COC[C@H]1CC[C@H](COC(=O)N(c2ccccc2)c2ccc(Cl)cc2)CC1 [ralinepag] ?
Result: 0.0228

====

assay.procedure: Single ascending dose
Type: in vivo, human
conditions.used: both, human, plasma, po, 30 ug
parameter: AUC(0-t) (ng·h/mL)
API: value field is a number in ng·h/mL; no unit string.

Q: Fill blank: measured AUC(0-t) of the molecule O=C(O)COC[C@H]1CC[C@H](COC(=O)N(c2ccccc2)c2ccc(Cl)cc2)CC1 is ____.
Result: 15.9

====

assay.procedure: Multiple ascending dose
Assay type: in vivo, human
conditions.used: human, plasma, oral, 50 ug, AUC0-τ,ss, 50 µg QD, steady state, τ 24 h, n = 16, mean (SD)
parameter: AUC (ng·h/mL)
Field format: number, assumed ng·h/mL, no unit text.

Q: // AUC lookup, key: O=C(O)COC[C@H]1CC[C@H](COC(=O)N(c2ccccc2)c2ccc(Cl)cc2)CC1
Result: 26.2

====

assay.procedure: Single ascending dose
Format: in vivo, human
conditions.used: both, human, plasma, po, 50 ug
parameter: Tmax (h)
Note: unit h is implicit; provide only the numeric part.

Q: Report Tmax for O=C(O)COC[C@H]1CC[C@H](COC(=O)N(c2ccccc2)c2ccc(Cl)cc2)CC1 [ralinepag] please.
Result: 1.25

====

assay.procedure: Single ascending dose
Format: in vivo, human
conditions.used: both, human, plasma, po
parameter: Tmax

Q: I am curious: what Tmax value has been reported for O=C(O)COC[C@H]1CC[C@H](COC(=O)N(c2ccccc2)c2ccc(Cl)cc2)CC1 ?
Result: 1 to 1.5 h

====

assay.procedure: Multiple ascending dose
Format: in vivo, human
conditions.used: human, plasma, oral, 50 ug, AUC0-τ, 50 µg QD, Study Day 1 (non-steady-state), τ 24 h, n = 20, mean (SD)
parameter: AUC
For clarity, give the value followed by its unit.

Q: Any idea what AUC was measured for O=C(O)COC[C@H]1CC[C@H](COC(=O)N(c2ccccc2)c2ccc(Cl)cc2)CC1 ?
Result: 15.9 ng·h/mL

====

assay.procedure: Multiple ascending dose
Format: in vivo, human
conditions.used: human, plasma, oral, 70 ug, Tmax,ss, 70 µg BID, steady state, single subject
parameter: Tmax (h)
The response must be a number in h with no trailing unit.

Q: Bench note: what Tmax did O=C(O)COC[C@H]1CC[C@H](COC(=O)N(c2ccccc2)c2ccc(Cl)cc2)CC1 show?
Result: 1.5

====

assay.procedure: Multiple ascending dose
Assay type: in vivo, human
conditions.used: human, plasma, oral, 100 ug, AUC0-τ,ss, 100 µg QD, steady state, τ 24 h, n = 7, mean (SD)
parameter: AUC (ng·h/mL)
Give just the number in ng·h/mL; leave the unit off.

Q: Requested field: AUC. Item: O=C(O)COC[C@H]1CC[C@H](COC(=O)N(c2ccccc2)c2ccc(Cl)cc2)CC1
Result: 48.6

====

assay.procedure: Multiple ascending dose
Format: in vivo, human
conditions.used: human, plasma, oral, 50 ug, Cmax,ss, 50 µg QD, steady state, n = 16, mean (SD)
parameter: Cmax (ng/mL)
# number only, unit ng/mL dropped from output

Q: Can you look up the measured Cmax of O=C(O)COC[C@H]1CC[C@H](COC(=O)N(c2ccccc2)c2ccc(Cl)cc2)CC1 for me?
Result: 2.74
